Source of measurements: ChEMBL document CHEMBL2163236

target: Cannabinoid receptor 1 (Homo sapiens, UniProt P21554); test: Displacement of [3H]CP-55940 from human recombinant CB1 receptor expressed in CHO cell membranes incubated for 90 mins by scintillation counting
Sequence (P21554 whole entry): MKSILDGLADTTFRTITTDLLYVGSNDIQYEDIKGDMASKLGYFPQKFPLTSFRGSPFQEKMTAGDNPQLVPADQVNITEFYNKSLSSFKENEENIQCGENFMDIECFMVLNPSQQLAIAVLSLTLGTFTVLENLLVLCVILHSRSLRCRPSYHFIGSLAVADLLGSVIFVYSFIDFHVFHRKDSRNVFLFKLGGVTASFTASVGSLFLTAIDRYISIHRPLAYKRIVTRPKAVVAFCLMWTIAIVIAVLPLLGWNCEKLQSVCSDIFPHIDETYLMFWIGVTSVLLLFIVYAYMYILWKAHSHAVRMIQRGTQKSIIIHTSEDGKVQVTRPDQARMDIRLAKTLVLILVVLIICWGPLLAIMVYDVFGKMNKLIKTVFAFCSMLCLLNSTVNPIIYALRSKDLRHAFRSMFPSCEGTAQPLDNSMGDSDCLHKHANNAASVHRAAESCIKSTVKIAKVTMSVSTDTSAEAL
Consider the following molecules and their measured pKi readings.
// pKi is dimensionless: -log10 of concentration (M)

Here is how some molecules turned out for pKi.
Query (molecule): CCC1COc2c(F)c(F)cc3c(=O)c(C(=O)NC45CC6CC(CC(C6)C4)C5)cn1c23 (racemic) ; field requested: pKi
5.76

Form field: reported pKi of CCC1COc2cccc3c(=O)c(C(=O)NC4CCCCCC4)cn1c23 (racemic)
6.36

pKi lookup needed for CC(C)C1COc2cccc3c(=O)c(C(=O)NC45CC6CC(CC(C6)C4)C5)cn1c23 (racemic) , thanks.
6.49

Requested read-out: pKi. Entry: O=C(NC1CCCCCC1)c1cn2c3c(cccc3c1=O)OCC2C1CC1 (racemic)
7.04

Please report the recorded pKi for "CC[C@H]1COc2cccc3c(=O)c(C(=O)NC4CCCCCC4)cn1c23" .
6.07

Please report the recorded pKi for Cc1ccc(C2COc3cccc4c(=O)c(C(=O)NC56CC7CC(CC(C7)C5)C6)cn2c34)cc1 (racemic) .
5.41

Which pKi value belongs to "CC[C@@H]1COc2cccc3c(=O)c(C(=O)NC45CC6CC(CC(C6)C4)C5)cn1c23" ?
6.71

Please look up its pKi: Cc1cc2c3c(c1)c(=O)c(C(=O)NC1CCCCC1)cn3C(c1ccccc1)CO2 (racemic)
5.87

# query: pKi of entry "C[C@@H]1COc2cccc3c(=O)c(C(=O)NC4CCCCC4)cn1c23"
5.54

May I ask what pKi has been recorded for CCCC1COc2cccc3c(=O)c(C(=O)NC45CC6CC(CC(C6)C4)C5)cn1c23 (racemic) ?
6.67

More entries:
Quick check: pKi of CCC1COc2cccc3c(=O)c(C(=O)Nc4nccs4)cn1c23 (racemic) ?
5.86

For the molecule Cc1ccc(C2COc3cccc4c(=O)c(C(=O)NC5CCCCC5)cn2c34)cc1 (racemic) , what pKi is on record?
5.39

* * *

biological target: Cannabinoid receptor 1 (Rattus norvegicus, UniProt P20272)
Sequence (P20272 whole entry): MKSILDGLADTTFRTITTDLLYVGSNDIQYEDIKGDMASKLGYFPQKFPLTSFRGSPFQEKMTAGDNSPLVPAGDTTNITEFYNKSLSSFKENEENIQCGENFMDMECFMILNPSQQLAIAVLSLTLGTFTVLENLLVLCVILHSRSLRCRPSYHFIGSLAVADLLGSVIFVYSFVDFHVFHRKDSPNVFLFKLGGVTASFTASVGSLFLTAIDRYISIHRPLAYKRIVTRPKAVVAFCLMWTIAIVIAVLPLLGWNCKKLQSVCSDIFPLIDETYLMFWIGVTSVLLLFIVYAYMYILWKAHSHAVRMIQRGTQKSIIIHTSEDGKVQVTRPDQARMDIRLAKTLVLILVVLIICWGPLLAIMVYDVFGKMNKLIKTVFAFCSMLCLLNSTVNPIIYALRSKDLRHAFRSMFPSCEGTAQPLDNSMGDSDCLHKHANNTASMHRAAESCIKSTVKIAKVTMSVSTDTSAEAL
Recorded Ki, one value per entry.
Please reply with the bare figure in µM and do not write the unit itself.

What is its Ki for Cannabinoid receptor 1 (Rattus norvegicus, UniProt P20272)? Entry: CCCC1COc2ccc(C)c3c(=O)c(C(=O)NC45CC6CC(CC(C6)C4)C5)cn1c23 (racemic)
0.476

More entries:
Which Ki is reported with Cannabinoid receptor 1 (Rattus norvegicus, UniProt P20272) for this entry: CCCC1COc2ccc(C)c3c(=O)c(C(=O)NC4CCCCC4)cn1c23 (racemic) ?
0.874

Give Ki (Cannabinoid receptor 1 (Rattus norvegicus, UniProt P20272)) of the following molecule: "CC[C@@H]1COc2cccc3c(=O)c(C(=O)NC4CCCCCC4)cn1c23"
0.126

Value wanted: Ki (Cannabinoid receptor 1 (Rattus norvegicus, UniProt P20272)) of entry CCC1COc2cccc3c(=O)c(C(=O)Nc4ccncc4)cn1c23 (racemic)
1.38

Reported Ki for Cannabinoid receptor 1 (Rattus norvegicus, UniProt P20272), given "O=C(NC12CC3CC(CC(C3)C1)C2)c1cn2c3c(cccc3c1=O)OC[C@H]2Cc1ccccc1" ?
0.121

Identify the measured Ki of "C[C@H]1COc2cccc3c(=O)c(C(=O)NC4CCCCC4)cn1c23" for Cannabinoid receptor 1 (Rattus norvegicus, UniProt P20272).
5.24

Form entry - test system: Cannabinoid receptor 1 (Rattus norvegicus, UniProt P20272); read-out: Ki; molecule: CCC1COc2cccc3c(=O)c(C(=O)NC45CC6CC(CC(C6)C4)C5)cn1c23 (racemic)
0.725

Provide the documented Ki with Cannabinoid receptor 1 (Rattus norvegicus, UniProt P20272) as the system for CCC1COc2cccc3c(=O)c(C(=O)Nc4nccs4)cn1c23 (racemic)
1.62

Under Cannabinoid receptor 1 (Rattus norvegicus, UniProt P20272): Ki value of CC1Oc2cccc3c(=O)c(C(=O)NC45CC6CC(CC(C6)C4)C5)cn(c23)C1c1ccccc1 (racemic) ?
2.64

Record lookup: for Cannabinoid receptor 1 (Rattus norvegicus, UniProt P20272), what Ki belongs to CC1COc2cccc3c(=O)c(C(=O)NC4CCCCC4)cn1c23 (racemic) ?
2.63

// fetch Cannabinoid receptor 1 (Rattus norvegicus, UniProt P20272) Ki for "C[C@@H]1COc2cccc3c(=O)c(C(=O)NC4CCCCC4)cn1c23"
3.56
